- system: Mushroom tyrosinase (Agaricus bisporus, UniProt O42713+Q00024+C7FF04+C7FF05)
- experimentDescription: Inhibition of mushroom tyrosinase using L-tyrosine as substrate preincubated for 20 mins followed by substrate addition by absorbance based analysis
measuredMetric: IC50 (nM)

{"compoundStructure": "NC(=S)N/N=C/c1ccc(OCc2cn(CC(=O)NCc3ccc(F)cc3)nn2)cc1", "unitsSymbol": "nM", "assayValue": 830}
{"compoundStructure": "NC(=S)N/N=C/c1ccc(OCc2cn(CC(=O)Nc3ccc(F)cc3)nn2)cc1", "unitsSymbol": "nM", "assayValue": 140}
{"compoundStructure": "Cc1c(NC(=O)Cn2cc(COc3ccc(/C=N/NC(N)=S)cc3)nn2)cccc1[N+](=O)[O-]", "unitsSymbol": "nM", "assayValue": 250}

A: NC(=S)N/N=C/c1ccc(OCc2cn(CC(=O)NCc3ccccc3)nn2)cc1
B: COc1ccc(NC(=O)Cn2cc(COc3ccc(/C=N/NC(N)=S)cc3)nn2)cc1
C: NC(=S)N/N=C/c1ccc(OCc2cn(CC(=O)Nc3ccccc3)nn2)cc1
Prompt: With regard to IC50, arrange the entries in ascending order, please. Put the labels in the requested order and write them down.
Response: B, A, C

* * *

- system: Tyrosinase (Homo sapiens)
- experimentDescription: Inhibition of human tyrosinase using L-DOPA as substrate incubated for 10 to 20 mins by MBTH dye based assay
pIC50: −log10 of the molar value.
measuredMetric: pIC50

{"compoundStructure": "CCCNc1nc(-c2ccc(O)cc2O)cs1", "pIC50": 5.21}
{"compoundStructure": "Oc1ccc(-c2csc(NC3CCCCC3)n2)c(O)c1", "pIC50": 4.80}
{"compoundStructure": "CCCCCCc1ccc(O)c(C)c1O", "pIC50": 4.03}

I: CN(c1nc(-c2ccc(O)cc2O)cs1)C1CCCCC1
II: Oc1ccc(-c2csc(Nc3ncccn3)n2)cc1
Prompt: Rank I against II by their pIC50 values and give the higher one. Your answer should be the label attached to the chosen record.
Response: II

* * *

- system: Mushroom tyrosinase (Agaricus bisporus, UniProt O42713+Q00024+C7FF04+C7FF05)
- experimentDescription: Inhibition of mushroom tyrosinase using L-DOPA as substrate preincubated for 10 mins followed by substrate addition by absorbance based analysis
measuredMetric: IC50 (µM)

Record excerpt, results attached:
{"compound": "O=c1oc2ccccc2cc1C1=NN(c2nc(-c3ccc(Br)cc3)cs2)C(c2ccc(Br)cc2)C1 (stereo unspecified)", "IC50 (µM)": 0.052}
{"compound": "Oc1ccc(/C=N/c2nnc(S)s2)c(O)c1", "IC50 (µM)": 0.25}

I: O=c1oc2ccccc2cc1C1=NN(c2nc(-c3ccc(Br)cc3)cs2)C(c2ccccc2O)C1 (stereo unspecified)
II: O=c1oc2ccccc2cc1C1=NN(c2nc(-c3ccc(Br)cc3)cs2)C(c2cc([N+](=O)[O-])ccc2O)C1 (stereo unspecified)
Prompt: Rank I against II by their IC50 values and give the higher one. Your answer should be the label attached to the chosen record.
Response: II
(II: 0.91 µM, I: 0.096 µM)

I: Oc1ccc(Br)cc1/C=N/c1nnc(S)s1
II: O=c1oc2ccccc2cc1C1=NN(c2nc(-c3ccc(Br)cc3)cs2)C(c2ccc(OCc3ccccc3)cc2)C1 (stereo unspecified)
Prompt: Of the pair I and II , name the member with the lesser recorded IC50. Your answer should be the label attached to the chosen record.
Response: II

I: COc1cc(OC)c(/C=N/c2nnc(S)s2)c(OC)c1
II: Oc1ccc(Cl)cc1/C=N/c1nnc(S)s1
Prompt: Rank I against II by their IC50 values and give the higher one. Your answer should be the label attached to the chosen record.
Response: II

* * *

- system: Mushroom tyrosinase (Agaricus bisporus, UniProt O42713+Q00024+C7FF04+C7FF05)
- experimentDescription: Inhibition of mushroom tyrosinase using L-DOPA as substrate preincubated for 10 mins followed by substrate addition by absorbance based analysis
measuredMetric: IC50 (nM)

Record excerpt, results attached:
{"molecule": "O=c1oc2ccccc2cc1C1=NN(c2nc(-c3ccc(Br)cc3)cs2)C(c2ccc([N+](=O)[O-])cc2)C1 (configuration not stated)", "IC50, nM": 130}
{"molecule": "O=c1oc2ccccc2cc1C1=NN(c2nc(-c3ccc(Br)cc3)cs2)C(c2ccccc2)C1 (configuration not stated)", "IC50, nM": 260}
{"molecule": "S=c1[nH]nc(/N=C/c2ccc(Cl)cc2)s1", "IC50, nM": 2460}

P: O=[N+]([O-])c1ccccc1/C=N/c1nnc(S)s1
Q: COc1cc(C2CC(c3cc4ccccc4oc3=O)=NN2c2nc(-c3ccc(Br)cc3)cs2)ccc1OCc1ccccc1 (configuration not stated)
R: O=c1oc2ccccc2cc1C1=NN(c2nc(-c3ccc(Br)cc3)cs2)C(C2=CC3C=CC=CC3N2)C1 (configuration not stated)
Prompt: With regard to IC50, arrange the entries in ascending order, please. Put the labels in the requested order and write them down.
Response: Q, R, P
(Q: 4.58 nM, R: 17 nM, P: 670 nM)

A: Oc1ccccc1/C=N/c1nnc(S)s1
B: Sc1nnc(/N=C/c2cccc(Cl)c2)s1
C: O=c1oc2ccccc2cc1C1=NN(c2nc(-c3ccc(Br)cc3)cs2)C(c2ccco2)C1 (configuration not stated)
Prompt: With regard to IC50, arrange the entries in ascending order, please. Put the labels in the requested order and write them down.
Response: C, A, B

* * *

- system: Tyrosinase (Homo sapiens)
- Sequence (P14679 whole entry): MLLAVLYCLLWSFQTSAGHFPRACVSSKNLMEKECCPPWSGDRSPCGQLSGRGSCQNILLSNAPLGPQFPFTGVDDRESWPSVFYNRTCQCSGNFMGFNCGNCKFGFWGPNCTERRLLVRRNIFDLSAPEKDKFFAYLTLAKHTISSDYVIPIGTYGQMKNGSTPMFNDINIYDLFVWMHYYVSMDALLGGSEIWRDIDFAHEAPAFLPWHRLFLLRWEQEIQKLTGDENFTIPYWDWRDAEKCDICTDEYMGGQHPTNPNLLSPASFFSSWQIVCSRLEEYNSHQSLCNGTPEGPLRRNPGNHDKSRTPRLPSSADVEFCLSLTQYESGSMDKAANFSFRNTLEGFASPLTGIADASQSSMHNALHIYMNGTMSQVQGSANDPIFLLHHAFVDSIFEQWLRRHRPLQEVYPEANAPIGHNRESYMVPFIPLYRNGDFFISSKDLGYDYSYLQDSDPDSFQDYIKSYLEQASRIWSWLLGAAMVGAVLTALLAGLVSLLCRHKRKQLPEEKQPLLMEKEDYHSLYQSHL
- experimentDescription: Inhibition of human His-tagged tyrosinase CD expressed in HEK293 cells assessed as inhibition of melanin production using L-DOPA as substrate
- Assay type: cell-based
pIC50: −log10 of the molar value.
measuredMetric: pIC50

a: C[C@@H](O)CCc1ccc(O)cc1
b: CC(C)C(=O)Nc1nc(-c2ccc(O)cc2O)cs1
c: Oc1ccc(O)cc1 [HYDROQUINONE]
Prompt: Hello, I need these entries ordered by pIC50, highest reading first. Thanks! Put the labels in the requested order and write them down.
Response: b, c, a
(b: 6.05, c: 4.82, a: 2.92)

* * *

Attribute: inhibition at 24 h, 8 µM
- experimentDescription: Cytotoxicity against mouse B16-F10 cells assessed as inhibition of cell growth at 8 uM measured after 24 hrs by MTT assay relative to control
- Format: toxicity, cell-based
The response must be a number in % with no trailing unit.

Record excerpt, results attached:
{"compoundStructure": "NC(=S)N/N=C/c1ccc(OCc2cn(CC(=O)Nc3ccc(Cl)cc3)nn2)cc1", "inhibition at 24 h, 8 µM [%]": 69.6}
{"compoundStructure": "NC(=S)N/N=C/c1ccc(OCc2cn(CC(=O)NCc3ccccc3)nn2)cc1", "inhibition at 24 h, 8 µM [%]": 39.8}

Prompt: Which inhibition at 24 h, 8 µM reading was recorded for the compound O=c1cc(CO)occ1O ?
Response: 94

* * *

- system: Mushroom tyrosinase (Agaricus bisporus, UniProt O42713+Q00024+C7FF04+C7FF05)
- experimentDescription: Inhibition of mushroom tyrosinase using L-DOPA as substrate preincubated for 10 mins followed by substrate addition by absorbance based analysis
measuredMetric: IC50 (nM)

{"molecule": "COc1ccc(C2CC(c3cc4ccccc4oc3=O)=NN2c2nc(-c3ccc(Br)cc3)cs2)cc1O (centres undefined)", "unitsSymbol": "nM", "assayValue": 83}

A: O=c1oc2ccccc2cc1C1=NN(c2nc(-c3ccc(Br)cc3)cs2)C(c2ccc(Cl)cc2)C1 (centres undefined)
B: CCn1c2ccccc2c2cc(C3CC(c4cc5ccccc5oc4=O)=NN3c3nc(-c4ccc(Br)cc4)cs3)ccc21 (centres undefined)
C: O=c1oc2ccccc2cc1C1=NN(c2nc(-c3ccc(Br)cc3)cs2)C(c2cc([N+](=O)[O-])ccc2Cl)C1 (centres undefined)
Prompt: Please list these molecules in decreasing order of IC50. Put the labels in the requested order and write them down.
Response: A, B, C
